Measured values drawn from ChEMBL document CHEMBL1139080 for this set.

study-target: Carboxypeptidase B (Sus scrofa, UniProt P09955)
Sequence (P09955 whole entry): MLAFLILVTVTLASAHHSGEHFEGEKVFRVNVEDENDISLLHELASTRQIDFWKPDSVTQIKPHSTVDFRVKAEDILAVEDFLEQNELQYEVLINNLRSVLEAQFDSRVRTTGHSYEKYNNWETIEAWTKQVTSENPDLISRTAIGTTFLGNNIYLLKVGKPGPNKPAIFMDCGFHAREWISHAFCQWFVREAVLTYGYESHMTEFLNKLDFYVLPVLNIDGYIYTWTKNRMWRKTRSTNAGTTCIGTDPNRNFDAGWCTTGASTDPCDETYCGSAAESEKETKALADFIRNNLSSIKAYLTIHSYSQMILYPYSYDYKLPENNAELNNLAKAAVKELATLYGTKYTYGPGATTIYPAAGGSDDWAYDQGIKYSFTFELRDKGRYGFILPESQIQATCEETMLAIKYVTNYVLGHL
quantity-kind: pIC50
For clarity, pIC50 is expressed as the negative log10 of concentration in mol/L.

Lab note: measured pIC50 of N=C(N)Nc1cccc(C(CS)C(=O)O)c1 (racemic) was 6.86

Lab note: measured pIC50 of NC(N)=NCCCC(CS)C(=O)O (stereo not drawn) was 8.00

Lab note: measured pIC50 of O=C(O)C(CS)CC1CCCNC1 (stereo in doubt; 3b) was 5.71

Lab note: measured pIC50 of O=C(O)C(CS)CC1CCCNC1 (stereo in doubt; 3a) was 5.38

Lab note: measured pIC50 of O=C(O)C(CS)C1CCNCC1 (stereo not drawn) was 6.71

Lab note: measured pIC50 of N=C(N)N1CCC(C(CS)C(=O)O)CC1 (stereo not drawn) was 7.35

Lab note: measured pIC50 of N=C(N)Nc1cccc(C(CS)C(=O)O)c1 (stereo in doubt; (-)2a) was 5.76

====

study-target: Carboxypeptidase B2 (Homo sapiens)
Sequence (Q96IY4 whole entry): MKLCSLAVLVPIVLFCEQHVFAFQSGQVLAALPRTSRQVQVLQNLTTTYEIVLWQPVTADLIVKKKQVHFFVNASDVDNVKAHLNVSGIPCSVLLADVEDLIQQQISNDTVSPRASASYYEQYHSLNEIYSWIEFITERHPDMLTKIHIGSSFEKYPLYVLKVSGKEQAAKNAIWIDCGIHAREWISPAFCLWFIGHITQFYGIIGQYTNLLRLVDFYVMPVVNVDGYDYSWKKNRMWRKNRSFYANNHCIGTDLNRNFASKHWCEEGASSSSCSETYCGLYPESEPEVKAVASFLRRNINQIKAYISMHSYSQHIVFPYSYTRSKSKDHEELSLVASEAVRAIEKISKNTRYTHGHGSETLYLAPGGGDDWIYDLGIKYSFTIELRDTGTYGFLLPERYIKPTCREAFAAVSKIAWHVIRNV
assay-procedure: Inhibition of human activated thrombin activatable fibrinolysis inhibitor
quantity-kind: IC50 (µM)
Expressed in µM, but write only the number.

>>> experimental_value("O=C(O)C(CS)C1CCCNC1 (stereo in doubt; 1c)")
0.068

Item O=C(O)C(CS)CC1CCCNC1 (stereo in doubt; 3a) was tested on Carboxypeptidase B2 (Homo sapiens); the reported IC50 is 0.092

Item O=C(O)C(CS)CC1CCCNC1 (stereo in doubt; 3b) was tested on Carboxypeptidase B2 (Homo sapiens); the reported IC50 is 0.129

Item N=C(N)N1CCCC(C(CS)C(=O)O)C1 (stereo in doubt; 1b) was tested on Carboxypeptidase B2 (Homo sapiens); the reported IC50 is 0.045

====

study-target: Carboxypeptidase N catalytic chain (Homo sapiens, UniProt P15169)
Sequence (P15169 whole entry): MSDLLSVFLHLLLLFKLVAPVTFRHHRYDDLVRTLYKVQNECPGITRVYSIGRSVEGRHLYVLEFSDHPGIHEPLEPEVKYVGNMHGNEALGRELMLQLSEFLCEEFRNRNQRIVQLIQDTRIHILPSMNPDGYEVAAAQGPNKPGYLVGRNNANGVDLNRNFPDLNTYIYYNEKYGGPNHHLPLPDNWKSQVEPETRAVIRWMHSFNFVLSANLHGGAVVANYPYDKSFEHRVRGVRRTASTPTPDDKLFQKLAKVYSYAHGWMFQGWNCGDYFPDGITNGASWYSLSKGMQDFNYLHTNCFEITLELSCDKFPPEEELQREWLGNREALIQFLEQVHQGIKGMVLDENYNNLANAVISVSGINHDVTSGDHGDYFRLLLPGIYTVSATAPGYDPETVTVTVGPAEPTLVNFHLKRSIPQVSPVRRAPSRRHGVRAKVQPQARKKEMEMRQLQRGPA
One threshold, 1000 nM, splits the recorded IC50 values: lower ones are class 1, equal or higher ones are class 0.

// known answers, use as guide
>>> class("CC(=N)N1CCC(C(CS)C(=O)O)CC1 (centres undefined)")
"class 0"
>>> class("O=C(O)C(CS)CC1CCCNC1 (stereo in doubt; 3b)")
"class 0"
>>> class("O=C(O)C(CS)CC1CCNCC1 (centres undefined)")
"class 1"
>>> class("NC(N)=NCCCC(CS)C(=O)O (centres undefined)")
"class 1"
>>> class("NCC(=O)N1CCC(C(CS)C(=O)O)CC1 (centres undefined)")
"class 0"

Enquiry: Check if IC50 falls below 1000 nM for O=C(O)C(CS)C1CCNCC1 (centres undefined) .
Return: class 1

Enquiry: Check if IC50 falls below 1000 nM for N=C(N)Nc1cccc(C(CS)C(=O)O)c1 (stereo in doubt; (-)2a) .
Return: class 0

Enquiry: Check if IC50 falls below 1000 nM for Nc1cccc(C(CS)C(=O)O)c1 (centres undefined) .
Return: class 1
